Provide the recorded residual activity for the entries that follow.
Target: Ribosomal protein S6 kinase beta-1 (Homo sapiens)
Conditions: at 1 µM
// return numeric value only (unit: %, not printed)

Q: What does the record list as residual activity for CC[n+]1c(/C=C/N(C)c2ccccc2)n(-c2ccccc2)c2ccc(-c3nc4ccccc4s3)cc21 ?
A: 130

Q: Same question for O=C1Nc2ccc(Br)cc2/C1=C\c1cc2c([nH]1)CCCC2 please.
A: 84

Q: Same question for O=c1cc(-c2cccc3c2Sc2ccccc2S3)oc(N2CCOCC2)c1 please.
A: 119

Q: Same question for CCOc1cc2ncnc(Nc3cccc(Br)c3)c2cc1OCC please.
A: 109

Q: Same question for O=C1Nc2ccccc2/C1=C1/Nc2ccccc2/C1=N\OCCC(O)CO (stereo not given) please.
A: 20

Q: Same question for CN(C)c1ccc(/C=C2\C(=O)Nc3ccccc32)cc1 please.
A: 69

Q: Same question for O=C(Nc1cccc(Nc2nccc(Nc3cccc(C(F)(F)F)c3)n2)c1)C1CC1 please.
A: 83

Q: Same question for O=C1NC(=O)/C(=C/c2ccc3c(c2)OC(F)(F)O3)S1 please.
A: 73

Q: Same question for CC(C)n1cnc2c(NCc3ccccc3)nc(NCCCO)nc21 please.
A: 105

Q: Same question for COc1ccc(CNc2nc(N(CCO)CCO)nc3c2ncn3C(C)C)cc1 please.
A: 74

Q: Same question for Nc1ccc2ncnc(NCCc3ccc(Oc4ccccc4)cc3)c2c1 please.
A: 81

Q: Same question for Nc1n[nH]c2nnc(-c3c(-c4ccccc4)nn4ccccc34)cc12 please.
A: 112

Q: Same question for CC(C)n1cnc2/c(=N/c3cccc(Cl)c3)nc(NCCO)[nH]c21 please.
A: 36

Q: Same question for N#C/C(=C(\N)Sc1ccc(N)cc1)c1ccccc1C(F)(F)F please.
A: 68

Q: Same question for COc1ccc(S(=O)(=O)N(CCO)c2ccccc2CN(C)C/C=C/c2ccc(Cl)cc2)cc1 please.
A: 97

Q: Same question for CO[C@H]1C[C@@H]2CC[C@@H](C)[C@@](O)(O2)C(=O)C(=O)N2CCCC[C@H]2C(=O)O[C@H]([C@H](C)C[C@@H]2CC[C@@H](O)[C@H](OC)C2)CC(=O)[C@H](C)/C=C(\C)[C@@H](O)[C@@H](OC)C(=O)[C@H](C)C[C@H](C)/C=C/C=C/C=C/1C please.
A: 92

Q: Same question for CC(=O)O/N=C1\C(=C2\C(=O)Nc3cc(Br)ccc32)Nc2ccccc21 please.
A: 84

Q: Same question for N#CC(C#N)=C(N)/C(C#N)=C/c1ccc(O)cc1 please.
A: 66

Q: Same question for COc1ccc(OC)c2c(=S)c3ccccc3[nH]c12 please.
A: 115

Q: Same question for NC(=O)c1ccc2[nH]c(-c3ccc(Oc4ccc(Cl)cc4)cc3)nc2c1 please.
A: 92

* * *

Provide the recorded residual activity for the entries that follow.
Molecular target: Serine/threonine-protein kinase TAO1 (Homo sapiens)
Sequence (whole entry): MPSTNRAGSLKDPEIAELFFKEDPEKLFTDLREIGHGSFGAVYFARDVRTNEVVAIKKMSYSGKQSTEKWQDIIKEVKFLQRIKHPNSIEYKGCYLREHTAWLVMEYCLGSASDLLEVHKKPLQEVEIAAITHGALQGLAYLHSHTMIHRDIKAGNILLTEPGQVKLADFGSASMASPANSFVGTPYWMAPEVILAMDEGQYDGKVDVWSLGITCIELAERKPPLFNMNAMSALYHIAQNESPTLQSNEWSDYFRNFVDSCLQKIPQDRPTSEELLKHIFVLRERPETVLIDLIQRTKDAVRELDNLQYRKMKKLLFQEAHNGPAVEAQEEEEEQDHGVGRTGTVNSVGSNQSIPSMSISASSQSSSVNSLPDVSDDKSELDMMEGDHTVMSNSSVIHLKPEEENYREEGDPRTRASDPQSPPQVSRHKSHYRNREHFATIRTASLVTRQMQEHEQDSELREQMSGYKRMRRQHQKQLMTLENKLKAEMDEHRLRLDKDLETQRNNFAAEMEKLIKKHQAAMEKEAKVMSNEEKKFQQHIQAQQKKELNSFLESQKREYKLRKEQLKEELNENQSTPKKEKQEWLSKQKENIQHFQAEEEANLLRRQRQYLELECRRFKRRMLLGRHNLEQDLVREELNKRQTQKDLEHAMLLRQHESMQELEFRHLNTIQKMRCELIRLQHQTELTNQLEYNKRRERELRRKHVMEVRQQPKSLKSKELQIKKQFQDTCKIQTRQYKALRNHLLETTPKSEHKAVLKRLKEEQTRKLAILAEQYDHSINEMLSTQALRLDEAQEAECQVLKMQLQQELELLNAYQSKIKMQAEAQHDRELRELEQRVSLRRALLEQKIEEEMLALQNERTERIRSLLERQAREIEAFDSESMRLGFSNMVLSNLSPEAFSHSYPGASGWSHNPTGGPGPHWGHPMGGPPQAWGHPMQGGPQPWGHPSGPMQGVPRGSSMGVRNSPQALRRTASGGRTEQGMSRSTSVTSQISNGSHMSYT
Details: at 10 µM

Q: Test system Serine/threonine-protein kinase TAO1 (Homo sapiens); read-out residual activity; what value for CO[C@H]1C[C@@H]2CC[C@@H](C)[C@@](O)(O2)C(=O)C(=O)N2CCCC[C@H]2C(=O)O[C@H]([C@H](C)C[C@@H]2CC[C@@H](O)[C@H](OC)C2)CC(=O)[C@H](C)/C=C(\C)[C@@H](O)[C@@H](OC)C(=O)[C@H](C)C[C@H](C)/C=C/C=C/C=C/1C ?
A: 87%

Q: Same question for N#CC(C#N)=C(N)/C(C#N)=C/c1ccc(O)cc1 please.
A: 81%

Q: Same question for CCN(CC)C(=O)c1ccc(Nc2nc(OCC3CCCCC3)c3nc[nH]c3n2)cc1 please.
A: 10%

* * *

Target: Serine/threonine-protein kinase TAO3 (Homo sapiens) (UniProt Q9H2K8)
Sequence (Q9H2K8 whole entry): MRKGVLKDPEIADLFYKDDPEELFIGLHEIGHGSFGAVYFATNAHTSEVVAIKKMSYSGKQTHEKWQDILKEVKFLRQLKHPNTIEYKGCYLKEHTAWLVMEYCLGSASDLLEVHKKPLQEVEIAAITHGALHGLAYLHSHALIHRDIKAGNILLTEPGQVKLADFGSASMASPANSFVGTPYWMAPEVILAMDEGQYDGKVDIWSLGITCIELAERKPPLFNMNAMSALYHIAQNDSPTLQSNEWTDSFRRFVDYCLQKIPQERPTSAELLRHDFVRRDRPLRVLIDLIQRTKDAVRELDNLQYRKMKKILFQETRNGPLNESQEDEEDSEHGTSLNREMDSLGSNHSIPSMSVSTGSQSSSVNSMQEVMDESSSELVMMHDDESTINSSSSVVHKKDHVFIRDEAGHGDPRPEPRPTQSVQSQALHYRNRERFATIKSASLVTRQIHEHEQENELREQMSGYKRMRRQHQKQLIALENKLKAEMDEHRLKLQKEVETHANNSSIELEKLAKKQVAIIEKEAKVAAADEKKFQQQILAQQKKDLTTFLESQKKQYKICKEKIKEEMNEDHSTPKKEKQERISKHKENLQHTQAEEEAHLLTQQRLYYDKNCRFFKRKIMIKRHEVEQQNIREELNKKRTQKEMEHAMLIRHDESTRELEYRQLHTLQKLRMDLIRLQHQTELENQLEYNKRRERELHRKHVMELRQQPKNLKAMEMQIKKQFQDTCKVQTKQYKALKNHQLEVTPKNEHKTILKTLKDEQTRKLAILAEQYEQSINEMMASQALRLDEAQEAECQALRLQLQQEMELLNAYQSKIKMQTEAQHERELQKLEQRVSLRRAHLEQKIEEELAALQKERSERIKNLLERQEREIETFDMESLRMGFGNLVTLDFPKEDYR
Settings: at 10 µM
Please note: Criterion met applies when residual activity is 90% or greater, and Criterion not met applies otherwise.

Q: Quick check, residual activity >= 90%? O=C(Nc1cccc(Nc2cc(Nc3cccc(C(F)(F)F)c3)ncn2)c1)C1CC1
A: Criterion met

Q: Same question for COc1cc2ncnc(N3CCN(C(=O)Nc4ccc(Oc5ccccc5)cc4)CC3)c2cc1OC please.
A: Criterion not met

Q: Same question for O=C1NC(=O)/C(=C\c2ccc3nccnc3c2)S1 please.
A: Criterion not met

Q: Same question for Nc1n[nH]c2nnc(-c3c(-c4ccccc4)nn4ccccc34)cc12 please.
A: Criterion not met

Q: Same question for Oc1ccc(-c2nc(-c3ccc(F)cc3)c(-c3ccncc3)[nH]2)cc1 please.
A: Criterion not met

Q: Same question for CN(C)CCCn1cc(C2=C(c3c[nH]c4ccccc34)C(=O)NC2=O)c2ccccc21 please.
A: Criterion not met

Q: Same question for c1ccc(-c2n[nH]c3c2oc2ccccc23)cc1 please.
A: Criterion not met

Q: Same question for CO[C@@H]1[C@H](N(C)C(=O)c2ccccc2)C[C@H]2O[C@]1(C)n1c3ccccc3c3c4c(c5c6ccccc6n2c5c31)C(=O)NC4 please.
A: Criterion not met

Q: Same question for CO[C@H]1C[C@@H]2CC[C@@H](C)[C@@](O)(O2)C(=O)C(=O)N2CCCC[C@H]2C(=O)O[C@H]([C@H](C)C[C@@H]2CC[C@@H](O)[C@H](OC)C2)CC(=O)[C@H](C)/C=C(\C)[C@@H](O)[C@@H](OC)C(=O)[C@H](C)C[C@H](C)/C=C/C=C/C=C/1C please.
A: Criterion not met

Q: Same question for N#CC(C#N)=C(N)/C(C#N)=C/c1ccc(O)cc1 please.
A: Criterion not met

Q: Same question for NC(=O)c1ccc2[nH]c(-c3ccc(Oc4ccc(Cl)cc4)cc3)nc2c1 please.
A: Criterion not met

Q: Same question for N#CCCc1ccc2c(c1)-c1[nH]c3ccc([N+](=O)[O-])cc3c1CC(=O)N2 please.
A: Criterion not met

Q: Same question for O=C1Nc2ccccc2/C1=C1/Nc2ccccc2/C1=N\OCCC(O)CO (stereo not drawn) please.
A: Criterion not met

Q: Same question for O=C1NC(=O)c2c1c1c3ccccc3[nH]c1c1[nH]c3cc(Br)ccc3c21 please.
A: Criterion met

Q: Same question for CCC(=O)Nc1ccc2ncnc(Nc3cccc(Br)c3)c2c1 please.
A: Criterion met

Q: Same question for Cn1cc(/C=C2\C(=O)Nc3ccc(S(N)(=O)=O)cc32)c2ccccc21 please.
A: Criterion not met

Q: Same question for O=C1NC(=O)c2cc(Nc3ccc(F)cc3)c(Nc3ccc(F)cc3)cc21 please.
A: Criterion not met

Q: Same question for O=[N+]([O-])c1ccc(-c2nc(-c3ccc(F)cc3)c(-c3ccncc3)[nH]2)cc1 please.
A: Criterion met

Q: Same question for O=c1cc(-c2cccc3c2Sc2ccccc2S3)oc(N2CCOCC2)c1 please.
A: Criterion not met

Q: Same question for O=C1Nc2cc(Br)ccc2/C1=C1/Nc2ccccc2/C1=N\O please.
A: Criterion not met

Q: Same question for O=C1NC(=O)/C(=C/c2ccc3c(c2)OC(F)(F)O3)S1 please.
A: Criterion not met

Q: Same question for CC#CC(=O)Nc1cc2c(Nc3ccc(F)c(Cl)c3)ncnc2cn1 please.
A: Criterion met

Q: Same question for O=c1c2ccccc2[nH]c(=S)n1CCN1CCC(=C(c2ccc(F)cc2)c2ccc(F)cc2)CC1 please.
A: Criterion not met

Q: Same question for c1ccc(-c2n[nH]cc2-c2ccnc3ccccc23)nc1 please.
A: Criterion not met

Q: Same question for Cc1nc2cc3nc(-c4cccs4)cnc3cc2n1C please.
A: Criterion met

Q: Same question for Nc1nc(Nc2ccc(S(N)(=O)=O)cc2)nn1C(=S)Nc1c(F)cccc1F please.
A: Criterion not met

Q: Same question for COc1ccc(C(=O)Nc2sc3c(c2C(N)=O)CCCC3)cc1OC please.
A: Criterion met

All values here come from ChEMBL document CHEMBL2218924.
